Cited source: patent US11524940B1

# Lookup of reported EC50 keyed by entry
Molecular target: 229E Mpro (Human coronavirus 229E (HCoV-229E))
Assay: 229E Mpro activity
Assay type: biochemical
Conditions: read-out: 229E Mpro EC50

# compound, experimentalTarget, result
records = [
    ("N#C[C@@]1(NC(=O)[C@H](CC2CC2)NC(=O)OCc2ccccc2)C[C@@H]2CC[C@H]1[C@@H]1C(=O)NC(=O)[C@H]21 (single isomer, unassigned) [495 (Isomer 2)]", "229E Mpro (Human coronavirus 229E (HCoV-229E))", "> 30000 nM"),
]

Return reported EC50. Input compound: COc1ccc2[nH]c(C(=O)N3CC4(CCC4)CC3C(=O)N[C@H](C#N)C[C@@H]3CCNC3=O)cc2c1Cl (single isomer, unassigned) [886 (Isomer 2)] < 2000 nM

Return reported EC50. Input compound: CC1(C)CC(C[C@@H](C#N)NC(=O)C2CC3(CCCCC3)CN2C(=O)c2cc3cccc(Cl)c3[nH]2)C(=O)N1 (single isomer, unassigned) [930 (Isomer 3.1)] < 2000 nM

====

Biological target: SARS-CoV2 Mpro (Severe acute respiratory syndrome coronavirus 2 (2019-nCoV) (SARS-CoV-2))
measurementType: IC50

# compound, IC50
measured = [
    ("N#C[C@H](C[C@@H]1CCCNC1=O)NC(=O)C1CC2(CCCCC2)CN1C(=O)c1cc2ccc(Cl)cc2[nH]1 (single isomer, unassigned) [733 (Isomer 2)]", "2 to 10 µM"),
    ("CC1(C)CC(C[C@@H](C#N)NC(=O)C2CC3(CCCCC3)CN2C(=O)c2cc3cccc(Cl)c3[nH]2)C(=O)N1 (single isomer, unassigned) [930 (Isomer 4)]", "2 to 10 µM"),
]

Return reported IC50. Input compound: N#C[C@H](C[C@@H]1CCCNC1=O)NC(=O)C1CC2(CN1C(=O)c1cc3cccc(Cl)c3[nH]1)CC(F)(F)C2 (single isomer, unassigned) [743 (Isomer 1)] > 30 µM

Return reported IC50. Input compound: COc1cccc2[nH]c(C(=O)N[C@@H](CC3CC3)C(=O)N[C@](C)(C#N)CC3CCNC3=O)cc12 (single isomer, unassigned) [1055 (Isomer 2)] > 30 µM

Return reported IC50. Input compound: N#C[C@H](C[C@@H]1CCCNC1=O)NC(=O)C1CC2(CCC2)CN1C(=O)c1cc2c(Cl)cccc2[nH]1 (single isomer, unassigned) [803 (Isomer 4)] 2 to 10 µM

Return reported IC50. Input compound: N#C[C@H](C[C@@H]1CCCNC1=O)NC(=O)C1CC2(CCCCC2)CN1C(=O)c1cc2cccc(Cl)c2[nH]1 (single isomer, unassigned) [731 (Isomer 2)] 2 to 10 µM

====

Molecular target: SARS-CoV2 Mpro (Severe acute respiratory syndrome coronavirus 2 (2019-nCoV) (SARS-CoV-2), UniProt P0DTD1)
measurementType: IC50

Return reported IC50. Input compound: N#C[C@H](C[C@@H]1CCNC1=O)NC(=O)C1CC2(CCC2)CN1C(=O)c1cc2cccc(Cl)c2[nH]1 (single isomer, unassigned) [988 (Isomer 1)] > 30000 nM

Return reported IC50. Input compound: COc1cccc2[nH]c(C(=O)N3CC4(CC3C(=O)N[C@H](C#N)C[C@@H]3CCCNC3=O)CC(F)(F)C4)cc12 (single isomer, unassigned) [723 (Isomer 2)] < 2000 nM

Return reported IC50. Input compound: COc1cc(Cl)cc2[nH]c(C(=O)N3CC4(CCCCC4)CC3C(=O)N[C@H](C#N)C[C@@H]3CCCNC3=O)cc12 (single isomer, unassigned) [908 (Isomer 1)] < 2000 nM

Return reported IC50. Input compound: N#C[C@H](C[C@@H]1CCCNC1=O)NC(=O)C1CC2(CCCCC2)CN1C(=O)c1cc2c(Cl)cccc2[nH]1 (single isomer, unassigned) [801 (Isomer 1)] < 2000 nM

Return reported IC50. Input compound: N#C[C@H](C[C@@H]1CCNC1=O)NC(=O)C1CC2(CCC2)CN1C(=O)c1cc2ccc(Cl)cc2[nH]1 (single isomer, unassigned) [990 (Isomer 1)] > 30000 nM

====

Molecular target: UniProt P0C6X1
Test: 229E Mpro activity
Type: biochemical
Details: read-out: 229E Mpro EC50
pEC50: −log10 of the molar value.
measurementType: pEC50

# compound, experimentalTarget, pEC50
data = [
    ("COc1cccc2[nH]c(C(=O)N3CCC4(CC4)C[C@H]3C(=O)N[C@H](C#N)C[C@@H]3CCNC3=O)cc12 [Compound 183]", "UniProt P0C6X1", "5.00 to 5.70"),
    ("N#C[C@H](C[C@@H]1CCCNC1=O)NC(=O)[C@H](CC1CC1)NC(=O)c1cc2c(F)cc(Cl)cc2[nH]1 [Compound 838]", "UniProt P0C6X1", "> 5.70"),
    ("COc1cccc2[nH]c(C(=O)N[C@@H](CC(C)C)C(=O)N[C@@H](C[C@@H]3CCNC3=O)C(C#N)NCC(=O)O)cc12 (single isomer, unassigned) [653 (Isomer 2)]", "UniProt P0C6X1", "> 5.70"),
    ("N#C[C@H](C[C@@H]1CCNC1=O)NC(=O)[C@H](CC1CC1)N1CCc2cc[nH]c2C1=O [Compound 267]", "UniProt P0C6X1", "> 5.70"),
    ("COc1cc(Cl)c2[nH]c(C(=O)N[C@@H](CC(C)(C)C)C(=O)N[C@H](C#N)C[C@@H]3CCCNC3=O)cc2c1 [Compound 810]", "UniProt P0C6X1", "> 5.70"),
]

Return reported pEC50. Input compound: N#C[C@H](C[C@@H]1CCCNC1=O)NC(=O)C1CC2(CCC2)CN1C(=O)c1cc2cccc(Cl)c2[nH]1 (single isomer, unassigned) [729 (Isomer 1)] > 5.70

====

# Lookup of reported EC50 keyed by entry
Molecular target: 229E Mpro (Human coronavirus 229E (HCoV-229E), UniProt P0C6X1)
Sequence (P0C6X1 2966-3267 limits assumed): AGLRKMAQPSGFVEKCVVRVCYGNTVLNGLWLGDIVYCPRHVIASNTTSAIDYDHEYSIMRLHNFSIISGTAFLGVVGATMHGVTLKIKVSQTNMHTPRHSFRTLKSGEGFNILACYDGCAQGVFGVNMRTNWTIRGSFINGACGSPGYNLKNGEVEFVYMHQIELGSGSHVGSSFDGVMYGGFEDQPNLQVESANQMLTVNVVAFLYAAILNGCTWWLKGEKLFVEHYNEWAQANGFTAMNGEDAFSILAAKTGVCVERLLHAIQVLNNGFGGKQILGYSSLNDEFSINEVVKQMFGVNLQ
Assay: 229E Mpro activity
Format: biochemical
Details: read-out: 229E Mpro EC50

# compound, EC50
rows = [
    ("COc1cccc2[nH]c(C(=O)N3CC4(CCC(F)(F)CC4)CC3C(=O)N[C@H](C#N)C[C@@H]3CCCNC3=O)cc12 (single isomer, unassigned) [982 (Isomer 2)]", "> 30000 nM"),
    ("N#C[C@H](C[C@@H]1CCCNC1=O)NC(=O)[C@H](CC1CC1)NC(=O)c1ccn[nH]1 [Compound 872]", "2000 to 10000 nM"),
    ("N#C[C@H](C[C@@H]1CCCNC1=O)NC(=O)[C@H](CC1CC1)NC(=O)c1cc2c(Cl)ccc(F)c2[nH]1 [Compound 826]", "< 2000 nM"),
]

# return EC50 for COc1cccc2[nH]c(C(=O)N[C@@H](CC3CC3)C(=O)N[C@H](C#N)C[C@H]3C(=O)Nc4ccccc43)cc12 [Compound 932] , test system: 229E Mpro (Human coronavirus 229E (HCoV-229E), UniProt P0C6X1) < 2000 nM

# return EC50 for COc1cc(Cl)c2[nH]c(C(=O)N[C@@H](CC3CC3)C(=O)N[C@H](C#N)C[C@@H]3CCCNC3=O)cc2c1 [Compound 900] , test system: 229E Mpro (Human coronavirus 229E (HCoV-229E), UniProt P0C6X1) < 2000 nM

# return EC50 for COc1cccc2[nH]c(C(=O)N[C@@H](CC(C)C)C(=O)N[C@H](C#N)C[C@@H]3CCNC3=O)cc12 [Compound 101] , test system: 229E Mpro (Human coronavirus 229E (HCoV-229E), UniProt P0C6X1) < 2000 nM

====

# Lookup of reported EC50 keyed by entry
Target: 229E Mpro (Human coronavirus 229E (HCoV-229E))
Test: 229E Mpro activity
Assay type: biochemical
Details: read-out: 229E Mpro EC50

Consider the reported EC50 for these compounds:
# compound, measurementType, result
rows = [
    ("N#C[C@H](C[C@@H]1CCCNC1=O)NC(=O)C1CC2(CCC2)CN1C(=O)c1cc2ccc(Cl)cc2[nH]1 (single isomer, unassigned) [791 (Isomer 1)]", "EC50", "> 30000 nM"),
    ("N#C[C@H](C[C@@H]1CCNC1=O)NC(=O)[C@H](CC1CC1)NC(=O)c1cc2cc(Cl)ccc2[nH]1", "EC50", "< 2000 nM"),
]

# return EC50 for "N#C[C@H](C[C@@H]1CCCNC1=O)NC(=O)[C@H](CC1CC1)NC(=O)c1cc2c(Cl)cc(F)cc2[nH]1" , test system: 229E Mpro (Human coronavirus 229E (HCoV-229E)) < 2000 nM

====

# Lookup of reported IC50 keyed by entry
Target: SARS-CoV2 Mpro (Severe acute respiratory syndrome coronavirus 2 (2019-nCoV) (SARS-CoV-2))

Consider the reported IC50 for these molecules:
# molecule, result
data = [
    ("CC1(C)CC(C[C@@H](C#N)NC(=O)C2CC3(CCCCC3)CN2C(=O)c2cc3cccc(Cl)c3[nH]2)C(=O)N1 (single isomer, unassigned) [930 (Isomer 6)]", "< 2000 nM"),
    ("CC1(C)CC(C[C@@H](C#N)NC(=O)C2CC3(CCCCC3)CN2C(=O)c2cc3cccc(Cl)c3[nH]2)C(=O)N1 (single isomer, unassigned) [930 (Isomer 3.1)]", "< 2000 nM"),
    ("N#C[C@H](C[C@@H]1CCCNC1=O)NC(=O)C1CC2(CCCCC2)CN1C(=O)c1cc2ccc(Cl)cc2[nH]1 (single isomer, unassigned) [733 (Isomer 1)]", "< 2000 nM"),
    ("CC1(C)CC(C[C@@H](C#N)NC(=O)C2CC3(CCCCC3)CN2C(=O)c2cc3cccc(Cl)c3[nH]2)C(=O)N1 (single isomer, unassigned) [930 (Isomer 3.2)]", "2000 to 10000 nM"),
]

Please find the next molecule below.
# return IC50 for COc1ccc(Cl)c2[nH]c(C(=O)N3CC4(CCCCC4)CC3C(=O)NC(C#N)C[C@@H]3CCCNC3=O)cc12 (single isomer, unassigned) [902 (Isomer 3)] , test system: SARS-CoV2 Mpro (Severe acute respiratory syndrome coronavirus 2 (2019-nCoV) (SARS-CoV-2)) < 2000 nM
